These data points were gathered from patent US20240189240A1.

# tested.on: UniProt P28222
# Sequence (P28222 whole entry): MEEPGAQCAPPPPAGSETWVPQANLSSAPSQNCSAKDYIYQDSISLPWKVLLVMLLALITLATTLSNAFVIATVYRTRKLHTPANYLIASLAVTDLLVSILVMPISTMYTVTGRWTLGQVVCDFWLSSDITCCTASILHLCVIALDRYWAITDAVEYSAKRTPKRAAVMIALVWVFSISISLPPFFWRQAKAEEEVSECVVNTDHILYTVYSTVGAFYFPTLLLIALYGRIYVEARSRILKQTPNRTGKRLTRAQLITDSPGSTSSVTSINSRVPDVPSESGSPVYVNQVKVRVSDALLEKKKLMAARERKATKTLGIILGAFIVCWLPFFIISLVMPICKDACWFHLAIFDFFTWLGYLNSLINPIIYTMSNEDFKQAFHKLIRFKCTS
# run.description: 5-HT1b receptor occupancy and efficacy model, human dose estimate
# test.conditions: read-out: concentration of zolmitriptan in human CSF predicted to induce 50% efficacy (EC50) of 5-HT1b by zolmitriptan and NDMZ; model, zolmitriptan: NDMZ 1.0:0.75
attribute.measured: pEC50
Please express pEC50 as -log10 of the molar concentration.

Task: // Input: CN(C)CCc1c[nH]c2ccc(C[C@H]3COC(=O)N3)cc12 [Zolmitriptan] . Output its pEC50 only.
Result: 8.96
